Ref: patent US5939578A

Biological target: β-adrenoceptor, ventricular membranes (Sus scrofa)
Sequence (Q28998 whole entry): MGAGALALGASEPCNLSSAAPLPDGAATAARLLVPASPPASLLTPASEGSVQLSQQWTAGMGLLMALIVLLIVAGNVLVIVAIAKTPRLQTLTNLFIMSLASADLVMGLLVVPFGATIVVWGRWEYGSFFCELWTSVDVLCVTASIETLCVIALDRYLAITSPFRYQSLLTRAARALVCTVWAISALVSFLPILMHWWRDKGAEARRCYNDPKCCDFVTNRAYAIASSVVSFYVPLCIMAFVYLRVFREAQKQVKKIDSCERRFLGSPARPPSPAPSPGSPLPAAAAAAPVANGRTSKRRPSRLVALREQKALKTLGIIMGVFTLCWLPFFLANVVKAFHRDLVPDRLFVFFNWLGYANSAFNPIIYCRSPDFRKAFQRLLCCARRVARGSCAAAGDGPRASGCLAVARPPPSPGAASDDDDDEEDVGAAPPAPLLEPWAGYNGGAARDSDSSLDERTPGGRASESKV
readout-kind: IC50 (µM)
Give bare numbers, in µM.

compound: COC(=O)CCc1ccc(OCC(O)CNC(C)C)cc1 (centres unmarked) [Esmolol]
IC50 [µM]: 5

Entry CCOC(=O)c1ccc(OCC(O)CNC(C)(C)C)c(OC)c1 (centres unmarked) [Vasomolol] has what IC50?
4.7

====

Target: β-adrenoceptor, ventricular membranes
Assay: [3H]-DHA saturation binding to ventricular membranes (Scatchard analysis)
Conditions: 25° C., mean±S.E.M., Scatchard; read-out: equilibrium dissociation constant (Kd)
readout-kind: Kd (nM)
Numbers only, in nM.

Given the compound CCCc1ccccc1OCC(O)CNC(C)C (stereo not shown) [[^3 H]-DHA, [^3 H]dihydroalprenolol] , what is its reported Kd?
8.1
